Record form. Attribute: Ratio Ki. Fill in for each entry.
- procedureDetails: Selectivity ratio Ki for PDE4D4 to Ki for PDE4B3

Would you please look over these solved cases?
| compoundStructure | Ratio Ki |
| --- | --- |
| Cc1cc2c(NCCCN3CCN(C(=O)c4ncccn4)CC3)nnc(-c3cccc([N+](=O)[O-])c3)c2n1C | > 100 |
| O=C(c1cnccn1)N1CCN(CCCNc2nnc(-c3cccc([N+](=O)[O-])c3)c3c2cc2ccccn23)CC1 | 26 |
| O=C(c1cccnc1)N1CCN(CCCNc2nnc(-c3cccc(F)c3)c3c2cc2ccccn23)CC1 | 46 |

Could you now consider this next molecule?
Input line: Tell me the measured Ratio Ki of `N#Cc1cccc(-c2nnc(NCCCN3CCN(c4ncccn4)CC3)c3cc4ccccn4c23)c1` , please.
Output line: 3

---

- testedSystem: 3',5'-cyclic-AMP phosphodiesterase 4B (Homo sapiens, UniProt Q07343)
- Sequence (Q07343 whole entry): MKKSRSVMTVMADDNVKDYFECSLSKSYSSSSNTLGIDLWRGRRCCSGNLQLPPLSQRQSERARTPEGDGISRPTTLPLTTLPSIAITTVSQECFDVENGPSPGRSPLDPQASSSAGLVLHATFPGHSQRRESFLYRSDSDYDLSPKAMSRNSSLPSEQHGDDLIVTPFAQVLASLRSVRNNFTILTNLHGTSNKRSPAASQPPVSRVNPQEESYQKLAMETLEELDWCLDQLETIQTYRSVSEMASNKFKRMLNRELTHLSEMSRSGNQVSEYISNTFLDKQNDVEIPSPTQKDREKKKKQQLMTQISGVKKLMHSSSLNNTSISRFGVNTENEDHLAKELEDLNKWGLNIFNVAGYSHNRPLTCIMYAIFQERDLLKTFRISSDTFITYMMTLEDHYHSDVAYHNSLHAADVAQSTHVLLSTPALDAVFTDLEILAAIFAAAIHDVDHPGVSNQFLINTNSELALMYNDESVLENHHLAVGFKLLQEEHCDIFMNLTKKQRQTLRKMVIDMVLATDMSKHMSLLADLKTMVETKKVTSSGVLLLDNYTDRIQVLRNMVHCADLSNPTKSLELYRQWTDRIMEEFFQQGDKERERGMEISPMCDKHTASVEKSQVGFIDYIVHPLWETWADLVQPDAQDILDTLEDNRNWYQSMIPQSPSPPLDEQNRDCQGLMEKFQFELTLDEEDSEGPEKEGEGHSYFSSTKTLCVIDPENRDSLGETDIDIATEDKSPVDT
testReadout: log10 Ki (log10 of the value in µM)
All values: log10 Ki [µM].

| compoundStructure | log10 Ki |
| --- | --- |
| O=[N+]([O-])c1cccc(-c2nnc(NCCCN3CCN(c4ncccn4)CC3)c3cc4ccccn4c23)c1 | -0.68 |

Go through the list and state log10 Ki for each entry.
1. Cc1cc2c(NCCCN3CCN(C(=O)c4ccnnc4)CC3)nnc(-c3cccc([N+](=O)[O-])c3)c2n1C
2. Cc1cc2c(NCCCN3CCN(C(=O)c4ccncc4)CC3)nnc(-c3cccc([N+](=O)[O-])c3)c2n1C

Output line:
1. 0.65
2. 1.72

Go through the list and state log10 Ki for each entry.
1. Clc1cccc(-c2nnc(NCCCN3CCN(c4ncccn4)CC3)c3cc4ccccn4c23)c1
2. O=C(c1cnccn1)N1CCN(CCCNc2nnc(-c3cccc([N+](=O)[O-])c3)c3c2cc2ccccn23)CC1
3. Cc1cc2c(NCCCN3CCN(C(=O)c4ccno4)CC3)nnc(-c3cccc([N+](=O)[O-])c3)c2n1C
4. Cn1cccc1C(=O)N1CCN(CCCNc2nnc(-c3cccc(F)c3)c3c2cc2ccccn23)CC1

Output line:
1. 0.30
2. -2.25
3. 0.71
4. 0.72

Go through the list and state log10 Ki for each entry.
1. Cc1cccc(-c2nnc(NCCCN3CCN(c4ncccn4)CC3)c3cc4ccccn4c23)c1
2. Brc1cccc(-c2nnc(NCCCN3CCN(c4ncccn4)CC3)c3cc4ccccn4c23)c1

Output line:
[0.63, 0.16]

---

These compounds were tested on 3',5'-cyclic-AMP phosphodiesterase 4D (Homo sapiens, UniProt Q08499); log10(Ki) is the recorded read-out.
Sequence (Q08499 whole entry): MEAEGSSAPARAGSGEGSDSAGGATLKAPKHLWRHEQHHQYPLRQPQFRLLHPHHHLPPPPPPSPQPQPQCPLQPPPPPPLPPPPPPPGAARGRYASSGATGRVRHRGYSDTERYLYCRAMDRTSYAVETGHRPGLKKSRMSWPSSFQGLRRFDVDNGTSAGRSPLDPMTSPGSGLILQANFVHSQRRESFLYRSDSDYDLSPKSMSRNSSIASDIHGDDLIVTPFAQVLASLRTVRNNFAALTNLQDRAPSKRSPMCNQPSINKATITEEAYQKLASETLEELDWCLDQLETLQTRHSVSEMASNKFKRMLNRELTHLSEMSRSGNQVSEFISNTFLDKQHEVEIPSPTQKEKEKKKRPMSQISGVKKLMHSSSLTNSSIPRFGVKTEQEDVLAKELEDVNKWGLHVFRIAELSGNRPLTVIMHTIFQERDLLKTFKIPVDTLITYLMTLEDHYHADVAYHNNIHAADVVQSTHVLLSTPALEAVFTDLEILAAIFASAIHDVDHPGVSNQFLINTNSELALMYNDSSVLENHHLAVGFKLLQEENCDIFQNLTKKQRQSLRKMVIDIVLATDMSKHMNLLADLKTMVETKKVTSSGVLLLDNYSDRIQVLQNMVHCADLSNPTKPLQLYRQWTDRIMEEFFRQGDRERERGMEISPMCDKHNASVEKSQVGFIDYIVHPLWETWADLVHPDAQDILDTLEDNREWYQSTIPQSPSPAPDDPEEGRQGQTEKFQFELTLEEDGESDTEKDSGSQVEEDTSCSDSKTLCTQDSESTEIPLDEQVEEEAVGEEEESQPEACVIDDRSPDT
All values: log10 Ki [µM].

Would you please look over these solved cases?
| compoundStructure | recordedNumber |
| --- | --- |
| Cc1cc2c(NCCCN3CCN(C(=O)c4cnccn4)CC3)nnc(-c3cccc([N+](=O)[O-])c3)c2n1C | 0.65 |
| Cc1cccc(-c2nnc(NCCCN3CCN(c4ncccn4)CC3)c3cc4ccccn4c23)c1 | 1.74 |
| c1ccc(-c2nnc(NCCCN3CCN(c4ncccn4)CC3)c3cc4ccccn4c23)cc1 | 1.77 |
| O=C(c1ccccn1)N1CCN(CCCNc2nnc(-c3cccc(F)c3)c3c2cc2ccccn23)CC1 | 1.26 |
| O=[N+]([O-])c1cccc(-c2nnc(NCCCN3CCN(c4ncccn4)CC3)c3cc4ccccn4c23)c1 | 0.38 |

Go through the list and state log10(Ki) for each entry.
1. Cc1cc2c(NCCCN3CCN(C(=O)c4cccnc4)CC3)nnc(-c3cccc([N+](=O)[O-])c3)c2n1C
2. Fc1cccc(-c2nnc(NCCCN3CCN(c4ncccn4)CC3)c3cc4ccccn4c23)c1
3. O=C(c1cnccn1)N1CCN(CCCNc2nnc(-c3cccc([N+](=O)[O-])c3)c3c2cc2ccccn23)CC1

Output line:
[1.18, 1.92, -0.83]

Go through the list and state log10(Ki) for each entry.
1. Cc1cc2c(NCCCN3CCN(C(=O)c4ccccn4)CC3)nnc(-c3cccc([N+](=O)[O-])c3)c2n1C
2. Brc1cccc(-c2nnc(NCCCN3CCN(c4ncccn4)CC3)c3cc4ccccn4c23)c1

Output line:
1.06
1.24
